Catalogue of melting point values
property: melting point

* COc1cccc(CC(=O)O)c1OCCCc1cc(OC(C)C)nn1Cc1ccc(C(F)(F)F)cc1Cl | 98 to 99 °C
* O=C(c1ccc(Br)cc1)c1cccc([N+](=O)[O-])c1 | 104 to 105 °C
* CC(C)(O)c1ccc(CC(=O)Nc2cccnc2Oc2ccc(F)cc2)cc1 | 135 to 137 °C
* N#Cc1cncc(-c2cccc(OCc3ccccc3)c2)c1Nc1ccc2[nH]ccc2c1 | 165 to 166 °C
* CS(=O)(=O)c1ccc(-n2nc(C(F)(F)F)nc2-c2ccc(Br)cc2)nn1 | 174 to 181 °C
* OCc1c2c(nn1-c1ccc(F)cc1)CCCCC2 | 177 to 178 °C
* CN1C(=O)[C@H](NC(=O)/C=C/c2cccc(Cl)c2)N=C(c2ccccc2)c2ccccc21 | 229 to 231 °C
* O=c1ccc2cc(OCc3cn(-c4ccccc4Cl)nn3)ccc2o1 | 164 to 166 °C
* CCCc1nc2c(N)nc(C)c(C)c2n1Cc1cc(-c2ccc(F)cc2)no1 | 227 to 229 °C
* CCCCn1c(=O)c2cc(C(=O)O)cn2c2cc(Cl)c(Cl)cc21 | 281 to 283 °C
* CCN1CC(=O)N(c2cc(F)ccc2C)C1=S | 98 to 100 °C
* COc1cc(OC)c2c(=O)[nH]c(-c3cc(C)c(O)c(C)c3)nc2n1 | 297 to 299 °C
* Cc1ccc(C2COc3c(C)c(C)c(NCc4ccccc4)c(C)c32)nc1 (stereo not given) | 104 to 105 °C
* Cc1nc(COc2cccc(Cl)c2C)no1 | 69 °C
* CCOc1ccc([C@H]2O[C@H](CC(=O)O)C(=O)N(CC(C)(C)C)c3ccc(Cl)cc32)c(OC)c1 (relative stereo) | 230 to 232 °C
* N#Cc1cc2c(cn1)CCCC2 | 56 to 59 °C
* CN1CC(CCN2CCN(c3ccc(Cl)c(Cl)c3)CC2)OC1=O (stereo not given) | 89 to 91 °C
* Cc1cc(=O)[nH]nc1-c1ccc2c(c1)CC1(CCN(C3CCC3)CC1)O2 | 243 to 245 °C
* Cc1ccc2nc3c(nc2c1)SC(C#N)=C(C#N)S3 | 213 to 215 °C
* CC(Cc1c[nH]c2ccccc12)(NC(=O)OC(C)(C)C(Cl)(Cl)Cl)C(=O)NCCc1ccccn1 (stereo not given) | 130 to 133 °C
